tested on: MCF7; experiment: NCI tumour cell line growth inhibition, 48 h
Activity calls are given as the source filed them. Rule as the data show it: active = GI50 up to about 1.1 µM and inactive = higher.
Listing of entries alongside the reported GI50.
reported endpoint: GI50

>>> readout_value("C=C(CCC/C(C)=C/C=C/[C@@H](C)CCCc1ccoc1)C[C@@H]1OC(=O)[C@H](C)[C@@H]1O")
"7.89 µM (inactive)"
>>> readout_value("COC(=O)N[C@H](C(=O)NC(OCc1ccccc1)C1COC(C)(C)O1)C(C)O[Si](C)(C)C(C)(C)C (stereo partly drawn)")
"27.6 µM (inactive)"
>>> readout_value("CC1(C)C2CCC(O)(C2)C1N (stereo not drawn)")
"> 100 µM (inactive)"

* * *

test system: CAKI-1; assay: NCI tumour cell line growth inhibition, 48 h
Activity calls are given as the source filed them. Rule as the data show it: active = GI50 up to about 1.1 µM and inactive = higher.
reported endpoint: GI50

>>> readout_value("Cc1n[nH]c(=O)n1/N=C/c1ccncc1")
"> 100 µM (inactive)"
>>> readout_value("Cc1cccc(N2C(=O)C(=O)C(c3nc4ccccc4s3)C(=O)C2=O)c1C")
"> 100 µM (inactive)"
>>> readout_value("O=[N+]([O-])c1cc(Cl)cc2cc(Br)cnc12")
"> 10 µM (inactive)"
>>> readout_value("Nc1ccc(Oc2ccc(C3(c4ccc(Oc5ccc(N)c(O)c5)cc4)C4CC5C6CC7CC5C3C(C7)C6C4)cc2)cc1O")
"2.49 µM (inactive)"
>>> readout_value("OC(C1CCCC1=N/N=C1/CCCC1C(O)(C(F)(F)Cl)C(F)(F)Cl)(C(F)(F)Cl)C(F)(F)Cl (stereo not drawn)")
"> 10 µM (inactive)"
>>> readout_value("O=C1NC(NCc2ccc(F)cc2)=N/C1=C\\c1ccccc1Cl")
"23.9 µM (inactive)"
>>> readout_value("COc1cc2nc(Cl)nc(NS(=O)(=O)c3cc4ccccc4s3)c2cc1OC")
"33.3 µM (inactive)"
>>> readout_value("COc1ccc2c(c1)C(=O)C1CC(=O)CCC21 (stereo not drawn)")
"> 100 µM (inactive)"
>>> readout_value("OC(c1ccccc1)C(F)(F)c1nc2ccccc2o1 (stereo not drawn)")
"> 100 µM (inactive)"
>>> readout_value("CC(C)=CCC/C(C)=C/COC(C)(C)C1=CCC(C)CC1.CC(C)=CCC/C(C)=C/COC1CC(C)CCC1=C(C)C (stereo not drawn)")
"> 100 µM (inactive)"
>>> readout_value("COC(OC)c1cccc2c1C(=O)CCC1(CC2)OCCCCO1")
"> 100 µM (inactive)"
>>> readout_value("Cc1c(/C=C2\\CC/C(=C\\c3[nH]c(C(=O)OC(C)(C)C)c(C)c3C)C2=O)[nH]c(C(=O)OC(C)(C)C)c1C")
"> 100 µM (inactive)"
>>> readout_value("COC(=O)C1(Cc2ccc3c(c2)CCC3)Cc2ccc3c(c2C1O)CCC3 (stereo not drawn)")
"14.2 µM (inactive)"
>>> readout_value("COc1ccc(/C=N\\N2CC(=O)N3C4C=CC(CC4)N3C2=O)cc1 (stereo not drawn)")
"> 100 µM (inactive)"
>>> readout_value("COc1cc2cnc3c4cc(OC(C)C)c(OC)cc4ccc3c2cc1OC")
"> 100 µM (inactive)"
>>> readout_value("N=C(N)NC(=N)Nc1c(F)c(F)c(F)c(F)c1F")
"> 100 µM (inactive)"
>>> readout_value("CC1OC(OC2C(Oc3cc(O)c4c(c3)O[C@H](c3ccc(O)cc3)CC4=O)OC(CO)C(O)C2O)C(O)C(O)C1O (stereo partly drawn)")
"> 100 µM (inactive)"
>>> readout_value("CC1(C)CC(c2c[nH]c3ccccc23)=CC2=Nc3ccccc3C21O (stereo not drawn)")
"48.8 µM (inactive)"

* * *

tested on: COLO 205; experiment: NCI tumour cell line growth inhibition, 48 h
Calls of active or inactive are those of the source. Rule as the data show it: active = GI50 up to about 1.1 µM and inactive = higher.
Classes used: true (active), false (inactive)

>>> label("C/C(=N\\O)c1cccc(Nc2c3ccccc3nc3occc23)c1")
"false"
>>> label("CCOC(=O)N1CCNCCN(C(=O)OCC)CCNCC1")
"false"
>>> label("O=C(Nc1ccccc1)Oc1ccccc1C1CCCCC1")
"false"
>>> label("C=CCCON(C(=O)OC(C)(C)C)c1ccccc1")
"false"
>>> label("CCOC(=O)Cn1nnc2ccc(Nc3nc4ccccc4nc3-c3ccccc3)cc21")
"false"
>>> label("CCOC(=O)c1cn(Cc2ccccc2)c(=O)n1Cc1ccccc1")
"false"
>>> label("NCC(Cl)C(O)c1c[nH]c(N)n1 (configuration not stated)")
"true"
>>> label("NC1=C(O)c2cccc3cccc(c23)C1=O")
"false"
>>> label("C#CCN(Cc1ccc2nc(-c3ccccc3)c(Cl)nc2c1)c1ccc(F)cc1")
"false"
>>> label("N#Cc1ccc(Oc2cccc(Oc3ccccc3)c2)cc1C#N")
"false"
>>> label("O=C1OC(c2ccccc2)=N/C1=C/NC(Cc1ccccc1)C(=O)O (configuration not stated)")
"false"
>>> label("Nc1nc(-c2cc(-c3cccc4ccccc34)nc(N)n2)cc(-c2cccc3ccccc23)n1")
"false"

* * *

Recorded GI50 by entry
test system: NCI/ADR-RES; experiment: NCI tumour cell line growth inhibition, 48 h
Activity calls are given as the source filed them. Rule as the data show it: active = GI50 up to about 1.1 µM and inactive = higher.
reported endpoint: GI50

>>> readout_value("O=[N+]([O-])c1cc(Cl)cc2cc(Br)cnc12")
"> 31.6 µM (inactive)"
>>> readout_value("COc1cc2nc(Cl)nc(NS(=O)(=O)c3cc4ccccc4s3)c2cc1OC")
"39.8 µM (inactive)"
>>> readout_value("CCCCNC(=S)Nc1nc(C(=O)NNC(=S)NCc2ccccc2)cs1")
"30.1 µM (inactive)"
>>> readout_value("C=C1C(=O)O[C@@H]2/C=C(\\C)CC/C=C(/COC(C)=O)C[C@@H](OC(C)=O)[C@@H]12")
"17.9 µM (inactive)"
>>> readout_value("COc1ccc(-c2cs/c(=N\\c3ccccc3)n2CCCN(C)C)cc1")
"15.2 µM (inactive)"
>>> readout_value("O=C(c1ccsc1)c1cc2c(s1)C(=O)c1ccsc1C2=O")
"0.137 µM (active)"
>>> readout_value("O=C(C(Cl)Cl)N(O)c1ccccc1OCc1ccccc1")
"22.8 µM (inactive)"
>>> readout_value("CCOC(=O)C1=NOC2(C=C(Br)C(=O)C(Br)=C2)C1")
"2.97 µM (inactive)"
>>> readout_value("COc1cc(C2c3c(ccc4ccccc34)C(=O)C3CCC(=O)N32)cc(OC)c1O (stereo not given)")
"> 25 µM (inactive)"
>>> readout_value("OC(C1CCCC1=N/N=C1/CCCC1C(O)(C(F)(F)Cl)C(F)(F)Cl)(C(F)(F)Cl)C(F)(F)Cl (stereo not given)")
"> 10 µM (inactive)"

* * *

tested on: NCI/ADR-RES; assay: NCI tumour cell line growth inhibition, 48 h
Activity calls are given as the source filed them. Cut-off read from the data, not from the text of the source: active = GI50 up to about 1.1 µM and inactive = higher.
reported endpoint: GI50

>>> readout_value("COc1ccc2[nH]c3c(c2c1)CC(=O)N1CCC[C@H](C1)CC31OCCCO1")
"> 100 µM (inactive)"
>>> readout_value("CCCCC1Nc2ccccc2-c2ccnc(Cl)c21 (stereo not given)")
"27.7 µM (inactive)"
>>> readout_value("Cc1ccc(-c2[nH]c(=O)n(C3OC(CO)C(O)C(O)C3O)c(=O)c2C#N)cc1 (stereo not given)")
"> 100 µM (inactive)"
>>> readout_value("CCCC1(N2C(=O)c3ccc4c5c(ccc(c35)C2=O)N(C2(CCC)CCCCC2)C4=O)CCCCC1")
"> 100 µM (inactive)"
>>> readout_value("CC(=O)OCC1OC(Oc2cc(C)c(O)cc2C/C=C(\\C)CC/C=C(\\C)C[C@@H](C=C(C)C)OC(C)=O)C(O)C(OC(C)=O)C1OC(C)=O (stereo not given in full)")
"16.8 µM (inactive)"

* * *

test system: SF-268; experiment: NCI tumour cell line growth inhibition, 48 h
Calls of active or inactive are those of the source. Rule as the data show it: active = GI50 up to about 1.1 µM and inactive = higher.
Possible outcomes: true (1) for active, false (0) for inactive

>>> label("CC(C)SC1SCC2C(=O)N(C)C3(CC3C)C(=O)OCC(NC(=O)c3nc4ccccc4cc3O)C(=O)NC(C)C(=O)N(C)C1C(=O)N(C)C1(CC1C)C(=O)OCC(NC(=O)c1nc3ccccc3cc1O)C(=O)NC(C)C(=O)N2C (stereo unspecified)")
"true (1)"
>>> label("O=c1cc(-c2ccccc2F)[nH]c2cc3c(cc12)OCO3")
"true (1)"
>>> label("COc1cc([C@@H]2c3cc4c(cc3[C@@H](NC(=O)c3ccc(OC(C)=O)cc3)C3COC(=O)[C@@H]32)OCO4)cc(OC)c1O (stereo partly specified)")
"false (0)"
>>> label("CCOC(=O)C1CN(C2CC2)CCC1=O (stereo unspecified)")
"false (0)"
>>> label("CN(C)CCCNC(=S)S")
"false (0)"
>>> label("Cn1c(-c2ccccc2)cc(-c2ccc3c(c2)OCO3)c1-c1cccs1")
"false (0)"
